- MEASURED ON: Slt (Pseudomonas aeruginosa, UniProt Q9HZI6)
- Sequence (Q9HZI6 25-642 limits assumed): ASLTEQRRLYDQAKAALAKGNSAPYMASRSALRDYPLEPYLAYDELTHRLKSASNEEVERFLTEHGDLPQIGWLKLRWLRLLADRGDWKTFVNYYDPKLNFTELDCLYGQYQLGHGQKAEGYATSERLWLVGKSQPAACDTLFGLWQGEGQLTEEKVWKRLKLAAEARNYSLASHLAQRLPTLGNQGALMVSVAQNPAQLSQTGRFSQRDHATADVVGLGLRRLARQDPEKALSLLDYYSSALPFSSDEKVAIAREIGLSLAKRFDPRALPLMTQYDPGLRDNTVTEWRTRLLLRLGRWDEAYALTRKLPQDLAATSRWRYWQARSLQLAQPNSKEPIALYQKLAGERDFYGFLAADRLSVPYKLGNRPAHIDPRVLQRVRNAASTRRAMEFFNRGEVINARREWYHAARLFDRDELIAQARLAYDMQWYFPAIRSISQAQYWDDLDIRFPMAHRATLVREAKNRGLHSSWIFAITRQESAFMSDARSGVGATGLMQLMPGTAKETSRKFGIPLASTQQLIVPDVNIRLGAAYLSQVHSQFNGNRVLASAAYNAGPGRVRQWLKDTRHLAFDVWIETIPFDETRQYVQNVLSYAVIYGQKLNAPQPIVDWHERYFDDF
- ASSAY COMMENT: biochemical
ASSAY READOUT: pKd
Scale for pKd: -log10 of concentration given in mol/L; no unit attached.

q: Query (compound): CC(=O)N[C@H]1[C@H](O[C@H]2C[C@@H](C(=O)NCCS(=O)(=O)O)N[C@@H]2CO)O[C@H](CO)[C@@H](OS(=O)(=O)O)[C@@H]1O ; field requested: pKd
a: 5.07

----------
- MEASURED ON: SltB1 (Pseudomonas aeruginosa)
- Sequence (Q9HX24 34-340 limits assumed): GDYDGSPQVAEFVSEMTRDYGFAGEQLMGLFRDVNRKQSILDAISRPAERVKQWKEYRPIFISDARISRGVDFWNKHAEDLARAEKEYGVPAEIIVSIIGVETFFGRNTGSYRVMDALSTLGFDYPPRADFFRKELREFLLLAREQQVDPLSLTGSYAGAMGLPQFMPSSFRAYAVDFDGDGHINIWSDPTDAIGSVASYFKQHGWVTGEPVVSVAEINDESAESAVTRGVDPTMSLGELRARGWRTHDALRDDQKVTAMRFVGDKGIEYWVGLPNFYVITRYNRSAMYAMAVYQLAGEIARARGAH
- ASSAY COMMENT: biochemical
- Assay type: binding
ASSAY READOUT: pKd
Keep in mind that pKd stands for -log10 of concentration in molar terms.

q: Param item = CC(=O)N[C@H]1[C@H](O[C@H]2C[C@@H](C(=O)NCCS(=O)(=O)O)N[C@@H]2CO)O[C@H](CO)[C@@H](OS(=O)(=O)O)[C@@H]1O [Bulgecin A] ; retrieve measured pKd.
a: 3.80

----------
- MEASURED ON: MltDsol (Pseudomonas aeruginosa, UniProt Q9I2T2)
- Sequence (Q9I2T2 32-534 limits assumed): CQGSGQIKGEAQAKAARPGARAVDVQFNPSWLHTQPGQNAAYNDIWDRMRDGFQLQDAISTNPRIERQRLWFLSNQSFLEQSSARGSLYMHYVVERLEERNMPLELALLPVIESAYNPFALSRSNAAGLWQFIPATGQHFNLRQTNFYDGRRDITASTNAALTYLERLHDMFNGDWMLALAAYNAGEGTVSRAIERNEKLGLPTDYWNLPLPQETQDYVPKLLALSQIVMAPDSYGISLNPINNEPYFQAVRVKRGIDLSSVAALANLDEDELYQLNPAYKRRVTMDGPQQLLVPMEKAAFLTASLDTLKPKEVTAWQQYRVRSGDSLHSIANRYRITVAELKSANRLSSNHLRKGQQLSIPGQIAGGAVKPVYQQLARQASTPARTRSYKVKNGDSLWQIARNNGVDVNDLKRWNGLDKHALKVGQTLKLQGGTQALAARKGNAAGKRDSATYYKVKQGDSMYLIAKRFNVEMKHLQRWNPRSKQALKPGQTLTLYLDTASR
- ASSAY COMMENT: biochemical
ASSAY READOUT: Kd
Reply with the number and its unit after it.

q: Any idea what Kd was measured for CC(=O)N[C@H]1[C@H](O[C@H]2C[C@@H](C(=O)NCCS(=O)(=O)O)N[C@@H]2CO)O[C@H](CO)[C@@H](OS(=O)(=O)O)[C@@H]1O ?
a: 1400 nM
